Test system: Klebsiella
Experiment: in vitro antibacterial activity, agar dilution (Klebsiella)
Assay type: cell-based
Design: unit not given here
Details: strain KAE
Would you mind telling me the reported minimum inhibitory concentration of each entry?
Write no unit; give the number alone.

(Q) State its minimum inhibitory concentration for this molecule: Cn1c([N+](=O)[O-])cnc1-c1nc(C2=C(C(=O)O)N3C(=O)[C@@H](NC(=O)/C(=N\O)c4csc(N)n4)[C@H]3CC2)cs1 [Example 33]
(A) 2

(Q) State its minimum inhibitory concentration for this molecule: CO/N=C(\C(=O)N[C@@H]1C(=O)N2C(C(=O)O)=C(c3csc(N)n3)CC[C@H]12)c1csc(N)n1 [Example 39]
(A) 2

(Q) State its minimum inhibitory concentration for this molecule: CO/N=C(\C(=O)N[C@@H]1C(=O)N2C(C(=O)O)=C(c3csc(-c4ccccc4)n3)CC[C@H]12)c1csc(N)n1 [Example 31]
(A) 1

(Q) State its minimum inhibitory concentration for this molecule: CO/N=C(\C(=O)N[C@@H]1C(=O)N2C(C(=O)O)=C(c3csc(C(c4ccccc4)c4ccccn4)n3)CC[C@H]12)c1csc(N)n1 (some centres unmarked) [Example 38]
(A) 128

(Q) State its minimum inhibitory concentration for this molecule: CO/N=C(\C(=O)N[C@@H]1C(=O)N2C(C(=O)O)=C(c3csc(-c4ccc(F)cc4)n3)CC[C@H]12)c1csc(N)n1 [Example 37]
(A) 2

(Q) State its minimum inhibitory concentration for this molecule: Nc1nc(C2=C(C(=O)O)N3C(=O)[C@@H](NC(=O)[C@H](N)c4ccccc4)[C@H]3CC2)cs1 [Example 41]
(A) 128

(Q) State its minimum inhibitory concentration for this molecule: CO/N=C(\C(=O)N[C@@H]1C(=O)N2C(C(=O)O)=C(c3csc(-c4ccco4)n3)CC[C@H]12)c1csc(N)n1 [Example 32]
(A) 1

(Q) State its minimum inhibitory concentration for this molecule: CO/N=C(\C(=O)N[C@@H]1C(=O)N2C(C(=O)O)=C(c3csc(-c4ccc(O)c(O)c4)n3)CC[C@H]12)c1csc(N)n1 [Example 40]
(A) 8
